- assayTarget: T1, full-length beta-Catenin (Uniprot ID P35222) (Homo sapiens (Human), UniProt P35222 2-781)
- T1 construct: the AlphaScreen assay uses a Histidine (Nickel Chelate) detection kit, so a His tag is likely there; also called B-Catenin; bCat
- T1 sequence: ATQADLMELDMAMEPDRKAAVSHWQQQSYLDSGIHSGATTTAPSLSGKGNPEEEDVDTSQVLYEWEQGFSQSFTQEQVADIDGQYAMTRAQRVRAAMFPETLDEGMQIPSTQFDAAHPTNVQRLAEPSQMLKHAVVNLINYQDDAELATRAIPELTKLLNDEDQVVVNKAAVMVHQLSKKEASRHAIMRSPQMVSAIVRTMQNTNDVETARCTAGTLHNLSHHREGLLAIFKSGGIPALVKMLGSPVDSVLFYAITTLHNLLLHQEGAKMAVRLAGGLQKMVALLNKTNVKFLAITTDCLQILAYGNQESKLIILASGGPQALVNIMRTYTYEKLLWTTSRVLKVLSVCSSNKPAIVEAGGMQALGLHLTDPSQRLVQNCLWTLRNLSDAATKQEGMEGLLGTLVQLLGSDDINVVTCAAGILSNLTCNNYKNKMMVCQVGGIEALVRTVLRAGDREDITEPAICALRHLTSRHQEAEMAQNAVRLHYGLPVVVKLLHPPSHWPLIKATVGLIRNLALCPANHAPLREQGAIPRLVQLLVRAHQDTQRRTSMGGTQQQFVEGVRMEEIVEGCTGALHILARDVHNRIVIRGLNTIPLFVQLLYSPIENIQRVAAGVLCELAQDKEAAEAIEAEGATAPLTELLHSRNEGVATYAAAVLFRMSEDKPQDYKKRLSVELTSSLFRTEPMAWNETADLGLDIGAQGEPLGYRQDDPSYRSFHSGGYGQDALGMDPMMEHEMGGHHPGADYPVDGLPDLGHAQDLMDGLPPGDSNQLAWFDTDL
- measurementNotes: fluorescence polarization competition; full-length beta-catenin with 5FAM-TCF4(10-53) probe as competitor
Starred links: 1 amine or outer side, 2 acyl side, 3 side chain; linkers in the order of their positions; H or OH if unused. Positions of bridges follow the written chain, without caps; N, C: chain ends. Non-standard residues stand in square brackets, D forms with d. Primed or numbered codes have the meaning given here. RdN″ = (R)-4-(((allyloxy)carbonyl)(methyl)amino)-2-amino-2-methylbutanoic acid (stapling residue), C=CCOC(=O)N(C)CC[C@@](C)(N[*:1])C(=O)[*:2]; B5(16) = 2-amino-2-(pent-4-en-1-yl)hept-6-enoic acid = 2,2-bis(4-pentenyl)glycine (stitching residue), C=CCCCC(CCCC=C)(N[*:1])C(=O)[*:2]; B5(4) = 2,2-bis(4-pentenyl)glycine = 2-amino-2-(pent-4-en-1-yl)hept-6-enoic acid (stitching residue), C=CCCCC(CCCC=C)(N[*:1])C(=O)[*:2]; B5(5) = 2,2-bis(4-pentenyl)glycine, 2-amino-2-(pent-4-en-1-yl)hept-6-enoic acid (stitching residue), C=CCCCC(CCCC=C)(N[*:1])C(=O)[*:2]; RdN = (R)-4-(((allyloxy)carbonyl)(methyl)amino)-2-amino-2-methylbutanoic acid, C=CCOC(=O)N(C)CC[C@@](C)(N[*:1])C(=O)[*:2]; B5(19) = 2-amino-2-(pent-4-en-1-yl)hept-6-enoic acid (bis(4-pentenyl)glycine), C=CCCCC(CCCC=C)(N[*:1])C(=O)[*:2]; Qui = (S)-2-amino-3-(quinolin-2-yl)propanoic acid, O=C([C@H](Cc1ccc2ccccc2n1)N[*:1])[*:2]; Trp(7-F) = N[C@@H](Cc1c[nH]c2c(F)cccc12)C(=O)O; S7 = C[C@@](CCCCCC=[*:3])(N[*:1])C(=O)[*:2]; 2Nal = N[C@@H](Cc1ccc2ccccc2c1)C(=O)O; Bta = N[C@@H](Cc1csc2ccccc12)C(=O)O; αAllylPro = C=CC[C@@]1(C(=O)O)CCCN1; S8 = C=CCCCCCC[C@](C)(N)C(=O)O; Aib = CC(C)(N)C(=O)O
assayReadout: EC50 (nM)
Numbers only, in nM.

binder	unitString	EC50
XDAXDXAAFVXFWQ (not fully specified; as printed: Ac-PL3-Asp-Ala-B5-Asp-EtGA-Ala-Ala-Phe-Val-S8-Phe-Trp-Gln-NH2; N-terminal acetyl, C-terminal amide; PL3(1), B5(4), EtGA(6), S8(11); staples PL3-B5 and B5-S8 by olefin metathesis, stapled peptide) [I-173]	nM	3120
Ac-[Aib]DI[RdN]DEAAFQ[S7]FW-NH2 (staple 4-11, stapled peptide composition) [I-147]	nM	1640
Ac-ADI[RdN″]DEAAFA[S7]FWH-NH2 (staple 4-11, stapled peptide composition) [I-152]	nM	5000
ADIXDEAAFAXFWA (not fully specified; as printed: Ac-Ala-Asp-Ile-RdN-Asp-Glu-Ala-Ala-Phe-Ala-S7-Phe-Trp-Ala-NH2; N-terminal acetyl, C-terminal amide; RdN(4), S7(11); staple RdN-S7 by olefin metathesis, stapled peptide) [I-155]	nM	5000
ADIXDEAAFAXFWA (not fully specified; as printed: Ac-Ala-Asp-Ile-RdN-Asp-Glu-Ala-Ala-Phe-Ala-S7-Phe-Trp-Ala-NH2; N-terminal acetyl, C-terminal amide; RdN(4), S7(11); staple RdN-S7 by olefin metathesis, stapled peptide) [I-154]	nM	5000
Ac-[αAllylPro]DI[B5(5)]DDAAFQ[S8]FWH-NH2 (staple 1-4, 4-11, stapled peptide) [I-174]	nM	1760

I have 6 binders here; please give me EC50 for each one.
1. Ac-[αAllylPro]DA[B5(19)]DEAAFV[S8]F[2Nal]Q-NH2 (staple 1-4, 4-11, stapled peptide composition) [I-140]
2. Ac-[αAllylPro]DA[B5(16)]DEAAFV[S8]F[Trp(7-F)]Q-NH2 (staple 1-4, 4-11, stapled peptide composition) [I-166]
3. Ac-[αAllylPro]DA[B5(4)]DEAAFV[S8]F[Bta]Q-NH2 (staple 1-4, 4-11, stapled peptide composition) [I-144]
4. Ac-ADI[RdN″]DEAAFQ[S7]FW-NH2 (staple 4-11, stapled peptide composition) [I-148]
5. Ac-[αAllylPro]DA[B5(4)]DEAAFV[S8]F[Qui]Q-NH2 (staple 1-4, 4-11, stapled peptide composition) [I-143]
6. Ac-[αAllylPro]DA[B5(4)]DEAAFV[S8]FWA-NH2 (staple 1-4, 4-11, stapled (stitched) peptide composition) [I-135]

1: 2270; 2: 2160; 3: 146; 4: 2770; 5: 2270; 6: 1870
